- ASSAYED_TARGET: human full-length MKNK1 (Homo sapiens, UniProt Q9BUB5, T385D)
- Construct: GST (N); purchased Carna Biosciences 02-145; host or cells: insect cells (baculovirus expression system)
- Sequence (Q9BUB5 1-424 isoform Q9BUB5-2 T344D): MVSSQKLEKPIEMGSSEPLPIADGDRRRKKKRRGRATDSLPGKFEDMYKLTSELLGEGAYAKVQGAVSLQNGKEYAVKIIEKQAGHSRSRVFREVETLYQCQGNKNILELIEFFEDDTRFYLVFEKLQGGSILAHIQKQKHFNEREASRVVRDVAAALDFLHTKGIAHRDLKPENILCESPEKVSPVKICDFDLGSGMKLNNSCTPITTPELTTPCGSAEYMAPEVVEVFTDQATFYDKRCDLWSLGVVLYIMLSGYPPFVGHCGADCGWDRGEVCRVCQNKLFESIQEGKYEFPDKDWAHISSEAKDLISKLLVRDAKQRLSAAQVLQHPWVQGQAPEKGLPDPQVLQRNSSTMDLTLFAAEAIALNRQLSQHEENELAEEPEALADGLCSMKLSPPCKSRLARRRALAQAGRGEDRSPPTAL
- TEST_NAME: MKNK1 kinase high ATP assay (TR-FRET)
- Format: biochemical
- EXPERIMENTAL_CONTEXT: Table 1; MKNK1 kinase high ATP assay, 2 mM ATP; read-out: MKNK1 IC50
- Protocol: MKNK1 Kinase High ATP Assay MKNK1-inhibitory activity at high ATP of compounds of the present invention after their preincubation with MKNK1 was quantified employing the TR-FRET-based MKNK1 high ATP assay as described in the following paragraphs. As substrate for the kinase reaction the biotinylated peptide biotin-Ahx-[…] (C-terminus in amide form) was used, which can be purchased e.g. from the company Biosyntan (Berlin-Buch, Germany). […]
ENDPOINT: IC50 (nM)
Your answer should be a plain number; it is taken to be in nM.

Consider the worked cases shown below.
COMPOUND	UNIT_STRING	MEASURED_VALUE
CCCN(C)C(=O)[C@H]1CCc2c(sc3ncnc(Nc4cc5cn[nH]c5cc4OC)c23)C1 [Example 97]	nM	0.3
CN(C)C(=O)[C@H]1CCc2c(sc3ncnc(Nc4cc5cn[nH]c5cc4N4CCCC4)c23)C1 [Example 103]	nM	1.3
CCCN(C)C(=O)[C@H]1CCc2c(sc3ncnc(Nc4cc5cn[nH]c5cc4OCC)c23)C1 [Example 174]	nM	0.1

Now, please, on to the next compound.
stdin: Reported IC50, compound COc1cc2[nH]ncc2cc1Nc1ncnc2sc3c(c12)CC[C@H](C(=O)N1CC=CC1)C3 [Example 206] : ____
stdout: 0.9

###

- ASSAYED_TARGET: human full-length MKNK1 (Homo sapiens, UniProt Q9BUB5, T385D)
- Construct: GST (N); purchased Carna Biosciences 02-145; host or cells: insect cells (baculovirus expression system)
- TEST_NAME: MKNK1 kinase high ATP assay (TR-FRET)
- Format: biochemical
- EXPERIMENTAL_CONTEXT: Table 1; MKNK1 kinase high ATP assay, 2 mM ATP; read-out: MKNK1 IC50
# pIC50 annotations
The value called pIC50 is obtained by taking minus log10 of the concentration in mol/L.

MOLECULE	pIC50
C[C@H](CN)Oc1cc2[nH]ncc2cc1Nc1ncnc2sc3c(c12)CC[C@H](C(=O)N(C)C)C3	9.22

stdin: Reported pIC50, molecule COc1cc2[nH]ncc2cc1Nc1ncnc2sc3c(c12)CC[C@H](C(=O)N1CC(F)(F)C1)C3 : ____
stdout: 9.15

stdin: Next up: COc1cc2[nH]ncc2cc1Nc1ncnc2sc3c(c12)CC[C@H](C(=O)N(C)CC(C)(C)OC)C3
stdout: 9.05

stdin: Next up: COc1cc2[nH]ncc2cc1Nc1ncnc2sc3c(c12)CC[C@H](C(=O)N(C)CCC(C)(C)O)C3
stdout: 9.00

stdin: Next up: CCCC(=O)NCCOc1cc2[nH]ncc2cc1Nc1ncnc2sc3c(c12)CC[C@H](C(=O)N(C)C)C3
stdout: 8.96

stdin: Next up: COc1cc2[nH]ncc2cc1Nc1ncnc2sc3c(c12)CC[C@H](C(=O)N1CC(C#N)C1)C3
stdout: 9.15
